Reported melting point values are given for each entry in this list.
EXPERIMENTAL READOUT: melting point

compound="CC(C)CN1C(=O)C(=NNC(=O)Nc2cc3cc(Br)ccc3o2)c2ccccc21 [13a]" test_value="208 to 210 °C"
compound="CN1C(=O)C(=NNC(=O)c2cc3cc(Br)ccc3o2)c2ccccc21 [7a]" test_value="260 to 262 °C"
compound="O=C(NN=C1C(=O)N(CCc2ccccc2)c2ccccc21)c1cc2cc(Br)ccc2o1 [7f]" test_value="239 to 241 °C"
compound="COc1ccc2c(c1)C(=NNC(=O)c1cc3cc(Br)ccc3o1)C(=O)N2 [5f]" test_value="> 300 °C"
compound="O=C1Nc2ccc(F)cc2C1=NNC(=O)c1cc2cc(Br)ccc2o1 [5b]" test_value="> 300 °C"
compound="O=C1Nc2ccccc2C1=NNC(=O)c1cc2cc(Br)ccc2o1 [5a]" test_value="> 300 °C"
compound="CC(C)CN1C(=O)C(=NNC(=O)c2cc3cc(Br)ccc3o2)c2ccccc21 [7c]" test_value="216 to 218 °C"
compound="C=CCN1C(=O)C(=NNC(=O)c2cc3cc(Br)ccc3o2)c2ccccc21 [7b]" test_value="207 to 209 °C"
compound="O=C(NN=C1C(=O)N(Cc2ccccc2)c2ccc(Br)cc21)c1cc2cc(Br)ccc2o1 [7h]" test_value="236 to 237 °C"

----------
EXPERIMENTAL READOUT: melting point

compound=O=C(NN=C1C(=O)N(Cc2ccccc2)c2ccccc21)c1cc2cc(Br)ccc2o1 test_value="248 to 250 °C"
compound=Cc1ccc2c(c1)C(=NNC(=O)c1cc3cc(Br)ccc3o1)C(=O)N2 test_value="> 300 °C"
compound=O=C1Nc2ccc(Br)cc2C1=NNC(=O)c1cc2cc(Br)ccc2o1 test_value="> 300 °C"
compound=Cc1cc(C)c2c(c1)C(=NNC(=O)c1cc3cc(Br)ccc3o1)C(=O)N2 test_value="> 300 °C"
compound=CC(C)CN1C(=O)C(=NNC(=O)c2cc3cc(Br)ccc3o2)c2cc(Br)ccc21 test_value="244 to 246 °C"
compound=CCOC(=O)CN1C(=O)C(=NNC(=O)c2cc3cc(Br)ccc3o2)c2ccccc21 test_value="215 to 216 °C"
compound="O=C(NN=C1C(=O)N(Cc2ccccc2)c2ccccc21)Nc1cc2cc(Br)ccc2o1 [13b]" test_value="217 to 219 °C"
compound=O=C1Nc2ccc(Cl)cc2C1=NNC(=O)c1cc2cc(Br)ccc2o1 test_value="> 300 °C"

----------
# ASSAYED SYSTEM: GSK-3β (Homo sapiens)
# Sequence (P49841 whole entry): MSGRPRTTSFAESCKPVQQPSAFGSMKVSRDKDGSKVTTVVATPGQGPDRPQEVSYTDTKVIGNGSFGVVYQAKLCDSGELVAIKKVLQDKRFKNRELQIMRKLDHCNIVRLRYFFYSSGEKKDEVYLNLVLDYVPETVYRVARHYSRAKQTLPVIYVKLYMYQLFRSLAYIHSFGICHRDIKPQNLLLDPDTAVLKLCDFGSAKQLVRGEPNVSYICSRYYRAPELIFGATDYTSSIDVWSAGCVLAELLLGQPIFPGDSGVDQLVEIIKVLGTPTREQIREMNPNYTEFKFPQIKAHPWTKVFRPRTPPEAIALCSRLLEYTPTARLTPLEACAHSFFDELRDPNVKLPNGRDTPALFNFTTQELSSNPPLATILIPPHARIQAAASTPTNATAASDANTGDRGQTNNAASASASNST
pIC50: −log10 of the molar value.
Catalogue of pIC50 readings, one per entry.
EXPERIMENTAL READOUT: pIC50

molecule="O=C1Nc2ccccc2C1=NNC(=O)c1cc2cc(Br)ccc2o1 [5a]" test_value=6.86
molecule="O=C1Nc2ccc(F)cc2C1=NNC(=O)c1cc2cc(Br)ccc2o1 [5b]" test_value=6.67
molecule="Cc1ccc2c(c1)C(=NNC(=O)c1cc3cc(Br)ccc3o1)C(=O)N2 [5e]" test_value=7.09

----------
Reported IC50, CDK2 (Homo sapiens, UniProt P24941).
EXPERIMENTAL READOUT: IC50 (nM)

compound="Cc1ccc2c(c1)C(=NNC(=O)c1cc3cc(Br)ccc3o1)C(=O)N2 [5e]" test_value=177
compound="COc1ccc2c(c1)C(=NNC(=O)c1cc3cc(Br)ccc3o1)C(=O)N2 [5f]" test_value=52.8
compound="O=C1Nc2ccccc2C1=NNC(=O)c1cc2cc(Br)ccc2o1 [5a]" test_value=141
compound="O=C1Nc2ccc(Cl)cc2C1=NNC(=O)c1cc2cc(Br)ccc2o1 [5c]" test_value=85.4

Cited source: paper PMC7751407
